# targetUnderTest: T1, PUF4 RNA-binding domain (Saccharomyces cerevisiae, UniProt P25339 537-888)
# T1 sequence: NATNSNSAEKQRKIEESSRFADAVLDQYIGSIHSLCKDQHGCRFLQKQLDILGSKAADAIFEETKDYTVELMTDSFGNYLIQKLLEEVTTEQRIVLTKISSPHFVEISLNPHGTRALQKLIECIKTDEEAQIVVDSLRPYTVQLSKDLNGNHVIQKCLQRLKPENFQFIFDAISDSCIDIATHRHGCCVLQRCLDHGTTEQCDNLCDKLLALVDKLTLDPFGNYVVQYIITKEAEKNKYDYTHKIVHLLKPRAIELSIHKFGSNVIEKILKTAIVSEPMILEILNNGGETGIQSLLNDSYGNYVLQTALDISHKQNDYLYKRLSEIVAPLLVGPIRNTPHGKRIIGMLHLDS
# assayExplanation: Mg; RNA-MaP; 20 mM Na-HEPES pH 7.4, 30 mM KOAc, 0.75 mM MgCl2, 0.1% Tween-20, 5% glycerol, 0.1 mg/mL BSA, 2 mM DTT; 25 C; 0.0125-409.6 nM protein
# conditionLabel: tags: N-His6-TEV cleaved; C-SNAP kept, Cy3B-labelled; label: tethered on chip by stalled RNA polymerase
Here, each record is paired with measured Kd data.
endpointLabel: Kd (nM)

binder	u	prefixOperator	measuredResult
UCUCUUCAACACUUAUUAACUCUCUU (ssRNA) [Id_ii_S1_P5E.4_K5.3_C5.2_[T-1A]_H5.3_A5.1_F5.1_T5.2_[T11A]_[A12C]]	nM	>	2300
UCUCUUUGUACACACGUCUCUU (ssRNA) [Ic_S1_P5E.1_K5.1_C5.1_H5.1_A5.1_[T5C]_[T6A]_[A7C]_F5.1_[T8A]_[T9C]_[A10G]_T5.1]	nM	=	122
UCUCUUUUUGUAUUAUCUCUU (ssRNA) [Ib_S1_P4E.1_K4.1_C4.1_H4.1_[G2T]_[A4G]_A4.1_F4.1_T4.1]	nM	=	25.7
Ib_S4_P4E.1_K4.1_C4.1_H4.1_A4.1_[T5C]_F4.1_[T8C]_T4.1 (ssRNA) RNA: UUUGACAACUGAUCGUUCUUUCUUGUACAUCAUUCUUUCUCGAUCAGUUGUCUUU	nM	=	8.87
